Measured values drawn from ChEMBL document CHEMBL6153075 for this set.

Assay: AUC (0 to infinity) in ICR mouse at 10 mg/kg, po measured for 5 to 480 mins by LC-MS/MS analysis
Assay type: ADME, organism-based
Conditions: in vivo, time 5-480 min
observable: AUC(0-inf) (ng·h/mL)

* CCc1nnc2ccc(-c3nc4cnc(-c5cnn(C)c5)cn4c3Nc3ccc(F)cc3Br)cn12 | 20900

* * *

Assay: Half life in ICR mouse at 10 mg/kg, po measured for 5 to 480 mins by LC-MS/MS analysis
Type: ADME, organism-based
Details: in vivo, time 5-480 min
observable: half-life (h)

* CCc1nnc2ccc(-c3nc4cnc(-c5cnn(C)c5)cn4c3Nc3ccc(F)cc3Br)cn12 | 2.26

* * *

Each entry below carries its recorded IC50.
Test system: MV4-11
Assay: Antiproliferative activity against human MV4-11 cells
observable: IC50 (µM)

* CCc1nnc2ccc(-c3nc4cnc(N5CCN(C)CC5)cn4c3Nc3ccc(F)c(Cl)c3)cn12 | 0.74
* COc1ccc(Nc2c(-c3ccc4nnc(C)n4c3)nc3cnc(N4CCOCC4)cn23)cc1 | 0.56
* Cc1nnc2ccc(-c3nc4cnc(N5CCOCC5)cn4c3Nc3ccc(C(F)(F)F)cc3)cn12 | 0.29
* Cc1nnc2ccc(-c3nc4cnc(N5CCOCC5)cn4c3Nc3cccc(F)c3)cn12 | 0.87
* Cc1sc2c(c1C)C(c1ccc(Cl)cc1)=N[C@@H](CC(=O)OC(C)(C)C)c1nnc(C)n1-2 | 0.03
* Cc1nnc2ccc(-c3nc4cnc(-c5cnn(C)c5)cn4c3Nc3ccc(F)cc3)cn12 | 4.9
* CCc1nnc2ccc(-c3nc4cnc(-c5cnn(C)c5)cn4c3Nc3ccc(F)cc3Br)cn12 | 0.02

* * *

Each entry below carries its recorded microsomal CLint.
Experiment: Metabolic stability in human liver microsomes assessed as clearance preincubated for 5 mins followed by NADPH addition measured for 5 to 90 mins by LC-MS/MS analysis
Format: ADME, Microsome
Conditions: time 10-95 min, read-out: CLH
observable: microsomal CLint (µL/min/mg)

* Cc1nnc2ccc(-c3nc4cnc(N5CCOCC5)cn4c3Nc3ccc(C(F)(F)F)cc3)cn12 | 4.52
* CCc1nnc2ccc(-c3nc4cnc(-c5cnn(C)c5)cn4c3Nc3ccc(F)cc3Br)cn12 | 0.3

* * *

Test: MRT in ICR mouse at 10 mg/kg, po measured for 5 to 480 mins by LC-MS/MS analysis
Type: ADME, organism-based
Settings: in vivo, time 5-480 min
observable: MRT (h)

• CCc1nnc2ccc(-c3nc4cnc(-c5cnn(C)c5)cn4c3Nc3ccc(F)cc3Br)cn12 = 3.9

* * *

Experiment: Cmax in ICR mouse at 10 mg/kg, po measured for 5 to 480 mins by LC-MS/MS analysis
Format: ADME, organism-based
Conditions: in vivo, time 5-480 min
observable: Cmax (µg/mL)

• CCc1nnc2ccc(-c3nc4cnc(-c5cnn(C)c5)cn4c3Nc3ccc(F)cc3Br)cn12 = 5.48

* * *

Each entry below carries its recorded IC50.
Tested on: HCT-116
Assay: Antiproliferative activity against human HCT-116 cells
Format: functional, cell-based
observable: IC50 (µM)

- COc1ccc(Nc2c(-c3ccc4nnc(C)n4c3)nc3cnc(N4CCOCC4)cn23)cc1: 4.49
- Cc1sc2c(c1C)C(c1ccc(Cl)cc1)=N[C@@H](CC(=O)OC(C)(C)C)c1nnc(C)n1-2: 2.7
